target-entity: KRas^G13D (Homo sapiens, UniProt P01116, G13D)
Construct: Biotinylated KRas (corresponding to amino acids 1-169, produced at Accelegan Inc.); biotin (biotinylated); purchased Accelegan Inc
Sequence (P01116 1-169 isoform P01116-2 G13D): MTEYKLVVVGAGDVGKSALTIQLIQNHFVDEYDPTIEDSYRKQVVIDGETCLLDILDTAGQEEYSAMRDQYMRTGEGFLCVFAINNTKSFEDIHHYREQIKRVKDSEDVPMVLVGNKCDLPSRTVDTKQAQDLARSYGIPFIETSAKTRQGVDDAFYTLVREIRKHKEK
procedure-details: KRas binding assay (TR-FRET tracer displacement), KRas G13D
assay-conditions: TR-FRET tracer displacement, KRas G13D
Reported IC50 values follow for various compounds
Answer format: value, then unit.

Oc1cc(-c2ncc3c(N4C[C@@H]5C[C@H](C4)[C@H](O)C5)nc(OC[C@@]45CCCN4C[C@H](F)C5)nc3c2F)c2ccc(F)cc2c1 = 37 nM
Oc1cc(-c2ncc3c(N4C[C@@H]5C[C@H](C4)[C@H](O)C5)nc(OC[C@@]45CCCN4C[C@H](F)C5)nc3c2F)c2ccccc2c1 = 12 nM
Cc1cc2[nH]nnc2c(-c2ncc3c(N4CCC[C@@](C)(O)C4)nc(OCC45CCCN4CCC5)nc3c2F)c1C = 10500 nM

Short answer for Cc1cc2[nH]ncc2c(-c2ncc3c(N4CC5CC(O)C(C5)C4)nc(OCC45CCCN4CCC5)nc3c2F)c1C (centres unmarked) : IC50 was 1120 nM

For Oc1cc(Cl)c(C2CC2)c(-c2ncc3c(N4CCC[C@]5(C4)C[C@H](O)C5)nc(OCC45CCCN4CCC5)nc3c2F)c1 the compound record lists IC50 as 3 nM

----------
target-entity: KRas^G12D (Homo sapiens, UniProt P01116, G12D)
Construct: Biotinylated KRas (corresponding to amino acids 1-169, produced at Accelegan Inc.); biotin (biotinylated); purchased Accelegan Inc
Sequence (P01116 1-169 isoform P01116-2 G12D): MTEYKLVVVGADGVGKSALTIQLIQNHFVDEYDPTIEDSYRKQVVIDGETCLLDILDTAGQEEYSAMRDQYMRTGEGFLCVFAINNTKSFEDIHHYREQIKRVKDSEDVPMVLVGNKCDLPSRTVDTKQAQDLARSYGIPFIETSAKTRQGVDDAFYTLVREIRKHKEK
procedure-details: KRas binding assay (TR-FRET tracer displacement), KRas G12D
measurement-type: IC50 (nM)
# number only, unit nM dropped from output

Below: 5 molecules and their reported IC50.
CCc1c(F)ccc2cc(O)cc(-c3ncc4c(N5CC6CCC(C5)C6C#N)nc(OC[C@@]56CCCN5C[C@H](F)C6)nc4c3F)c12 (single isomer, unassigned) [Example 560] = 262
CCc1c(F)ccc2cc(O)cc(-c3ncc4c(N5CCC6(CC5)OCCC6O)nc(OC[C@@]56CCCN5C[C@H](F)C6)nc4c3F)c12 (stereo partly drawn) = 5040
O=C1NC(=O)C2(CCCN(c3nc(OCC45CCCN4CCC5)nc4c(F)c(-c5c6ccccc6cc6[nH]ncc56)ncc34)C2)N1 (stereo not drawn) = 16
Oc1cc(-c2ncc3c(N4C[C@@H]5C[C@H](C4)[C@H](O)C5)nc(OC[C@@]45CCCN4C[C@H](F)C5)nc3c2F)c2ccccc2c1C(F)(F)F = 4650
CCc1c(F)ccc2cc(O)cc(-c3ncc4c(N5C[C@@H]6C[C@H](C5)[C@H](O)C6)nc(OCC56CCCN5C(C)CC6)nc4c3F)c12 (stereo partly drawn) = 2

The recorded IC50 for entry Cc1cc2[nH]ncc2c(-c2ncc3c(N4CCCn5nc(C(=O)N(C)C)cc5C4)nc(OCC45CCCN4CCC5)nc3c2F)c1C equals 35

get_value(item= CCc1cccc2cc3[nH]ncc3c(-c3ncc4c(N5C[C@@H]6C[C@H](C5)[C@H](O)C6)nc(OC[C@@]56CCCN5C[C@H](F)C6)nc4c3F)c12 , readout=IC50) returns 17

get_value(item= CCc1c(F)ccc2cc(O)cc(-c3ncc4c(N5Cc6n[nH]c(CO)c6C5)nc(OC[C@@]56CCCN5C[C@H](F)C6)nc4c3F)c12 , readout=IC50) returns 1300

IC50 measured on CCc1c(F)ccc2cc(O)cc(-c3nc4c5c(nc(OC[C@@]67CCCN6C[C@H](F)C7)nc5c3F)NCCO4)c12 = 14

The reported IC50 of the molecule Oc1cc(-c2ncc3c(N4C[C@@H]5C[C@H](C4)[C@H](O)C5)nc(OC[C@@]45CCCN4C[C@H](F)C5)nc3c2F)c2ccc(Cl)cc2c1 was 70

----------
target-entity: KRas^Q61H (Homo sapiens, UniProt P01116, Q61H)
Construct: Biotinylated KRas (corresponding to amino acids 1-169, produced at Accelegan Inc.); biotin (biotinylated); purchased Accelegan Inc
Sequence (P01116 1-169 isoform P01116-2 Q61H): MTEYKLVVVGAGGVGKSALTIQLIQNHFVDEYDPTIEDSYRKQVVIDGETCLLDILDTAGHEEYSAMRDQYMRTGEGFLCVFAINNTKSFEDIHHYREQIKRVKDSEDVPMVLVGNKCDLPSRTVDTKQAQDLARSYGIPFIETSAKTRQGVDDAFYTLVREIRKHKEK
procedure-details: KRas binding assay (TR-FRET tracer displacement), KRas Q61H
assay-conditions: TR-FRET tracer displacement, KRas Q61H
Values of IC50 strictly less than 200 nM map to fulfilled, and values of at least 200 nM map to not fulfilled.

Cc1cc2[nH]nnc2c(-c2ncc3c(N4CCC[C@@](C)(O)C4)nc(OCC45CCCN4CCC5)nc3c2F)c1C [Example 734] = not fulfilled
CN(C)C(=O)c1cc2n(n1)CCCN(c1nc(OCC34CCCN3CCC4)nc3c(F)c(-c4c(C5CC5)c(Cl)cc5[nH]ncc45)ncc13)C2 [Example 881] = fulfilled
Cc1cc2[nH]ncc2c(-c2ncc3c(N4CC5CC(O)C(C5)C4)nc(OCC45CCCN4CCC5)nc3c2F)c1C (stereo not shown) [Example 725] = not fulfilled
CCc1cccc2cc3[nH]ncc3c(-c3ncc4c(N5CCCC6(CNS(=O)(=O)N6)C5)nc(OC[C@@]56CCCN5C[C@H](F)C6)nc4c3F)c12 (stereo partly shown) [Example 772] = fulfilled
Cc1cc2sncc2c(-c2ncc3c(N4CCC[C@@](C)(O)C4)nc(OCC45CCCN4CCC5)nc3c2F)c1C [Example 820] = not fulfilled

Moving on to another molecule below.
**Query** Would you kindly verify if IC50 of Cc1cc2[nH]nnc2c(-c2ncc3c(N4CCOC[C@@](C)(O)C4)nc(OCC45CCCN4CCC5)nc3c2F)c1C [Example 822] is strictly less than 200 nM?
**Result** not fulfilled

----------
target-entity: KRas^G12A (Homo sapiens, UniProt P01116, G12A)
Construct: Biotinylated KRas (corresponding to amino acids 1-169, produced at Accelegan Inc.); biotin (biotinylated); purchased Accelegan Inc
Sequence (P01116 1-169 isoform P01116-2 G12A): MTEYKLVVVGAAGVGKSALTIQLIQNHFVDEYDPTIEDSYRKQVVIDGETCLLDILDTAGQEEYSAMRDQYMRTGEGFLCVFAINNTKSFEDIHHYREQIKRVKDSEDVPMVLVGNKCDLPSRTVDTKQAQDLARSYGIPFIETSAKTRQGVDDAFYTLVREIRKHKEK
procedure-details: KRas binding assay (TR-FRET tracer displacement), KRas G12A
assay-conditions: single point, 10 nM compound, TR-FRET
Binary classification by inhibition at 0.01 µM, with 80% as an inclusive lower bound for TRUE; all other cases are FALSE.

Oc1cc(-c2ncc3c(N4C[C@@H]5C[C@H](C4)[C@H](O)C5)nc(OC[C@@]45CCCN4C[C@H](F)C5)nc3c2F)c2ccccc2c1 [Example 737] = FALSE
CCc1c(F)ccc2cc(O)cc(-c3ncc4c(N5CCC(O)c6nn(C(=O)N(C)C)cc6C5)nc(OC[C@@]56CCCN5C[C@H](F)C6)nc4c3F)c12 (stereo partly drawn) [Example 674] = TRUE
CCc1c(F)ccc2cc(O)cc(-c3ncc4c(N5CCC[C@@](C)(O)C5)nc(OC[C@@]56CCCN5[C@H](COC(=O)N5CCCCC5)CC6)nc4c3F)c12 [Example 721] = TRUE

**Query** Hi, just wondering whether CCc1c(F)ccc2cc(O)cc(-c3ncc4c(N5CCC(O)C(F)(F)CC5)nc(OC[C@@]56CCCN5C[C@H](F)C6)nc4c3F)c12 (stereo partly drawn) [Example 586] shows inhibition at 0.01 µM of 80% or higher.
**Result** TRUE

**Query** Dear colleague, could you confirm whether C#Cc1c(F)ccc2cc(O)cc(-c3ncc4c(N5CCC[C@@](C)(O)C5)nc(OCC5(CN6CCCC6)CC5)nc4c3F)c12 [Example 752] has inhibition at 0.01 µM at or above 80%?
**Result** TRUE

**Query** Exam item: decide whether the reported inhibition at 0.01 µM for CCc1c(F)ccc2cc(O)cc(-c3ncc4c(N5CCCC6(CCS(=O)(=O)N6)C5)nc(OC[C@@]56CCCN5C[C@H](F)C6)nc4c3F)c12 (stereo partly drawn) [Example 643] is at least 80%.
**Result** TRUE

**Query** Quick check: does CCc1c(F)ccc2cc(O)cc(-c3ncc4c(N5C[C@@H]6C[C@H](C5)[C@H](O)[C@@H]6O)nc(OC[C@@]56CCCN5C[C@H](F)C6)nc4c3F)c12 [Example 568] have inhibition at 0.01 µM greater than or equal to 80%?
**Result** TRUE

**Query** Entry CCc1c(F)ccc2cc(O)cc(-c3ncc4c(N5CC6CCC(C5)C6C#N)nc(OC[C@@]56CCCN5C[C@H](F)C6)nc4c3F)c12 (stereo partly drawn) [Example 559] : is its inhibition at 0.01 µM no less than 80%?
**Result** FALSE

**Query** # check: inhibition at 0.01 µM of CCc1c(F)ccc2cc(O)cc(-c3ncc4c(N5CCCC6(CC(O)C6)C5)nc(OCC5(CN(C)C)CC5)nc4c3F)c12 (stereo not drawn) [Example 698] is greater than or equal to 80%
**Result** FALSE

**Query** Does the reported inhibition at 0.01 µM for CCc1c(F)ccc2cc(O)cc(-c3ncc4c(N5CCCCn6nc(C(=O)N(C)C)cc6C5)nc(OC[C@@]56CCCN5C[C@H](F)C6)nc4c3F)c12 [Example 671] fall at or above the 80% mark?
**Result** TRUE
